Data origin, for the record: the Deep4Chem optical property database

test_protocol: solvent given as SMILES
condition_parameters: in O
measurement_label: absorption maximum (nm)

These recorded examples may help you get a feel for the data.
>  <compound>
COc1cc(Br)cc2cc(-c3cc4cc(Br)cc(OC)c4oc3=O)oc12

>  <measurement_label>
absorption maximum

>  <result_number>
359

$$$$
>  <compound>
CN(C)c1ccc2c3c(c(=O)oc2c1)C=c1cc2c(cc1O3)=[N+](CCC(=O)O)CCC2

>  <measurement_label>
absorption maximum

>  <result_number>
587

$$$$
>  <compound>
C=CCNc1ccc2ccc3oc4cc(=[N+](C)C)ccc-4nc3c2c1

>  <measurement_label>
absorption maximum

>  <result_number>
552

$$$$
>  <compound>
O=C1Nc2ccccc2/C1=C/C(=O)c1ccc(Cl)cc1

>  <measurement_label>
absorption maximum

>  <result_number>
341

$$$$
>  <compound>
CC1=CC2=Nc3nc(C)[n+](C)cc3CN2C=C1

>  <measurement_label>
absorption maximum

>  <result_number>
392

$$$$
>  <compound>
CC/[NH+]=c1\cc2oc3cc(NCCC(=O)O)c4ccccc4c3nc-2cc1C

>  <measurement_label>
absorption maximum

>  <result_number>
580

$$$$
>  <compound>
CC1(C)C(=O)C=Cc2ccc(N3CCC3)cc21

>  <measurement_label>
absorption maximum

>  <result_number>
387

$$$$
>  <compound>
CC1(C)CC(=O)C2=C(C1)Oc1ccc3ccccc3c1C2c1ccccn1 (stereo not given)

>  <measurement_label>
absorption maximum

>  <result_number>
264

$$$$

1. CC[N+](CC)=c1ccc2c(-c3ccccc3C(=O)O)c3c(=O)oc4c5c6c(cc4c3oc-2c1)CCCN6CCC5
2. COc1ccc(/C=C/C2=NC(=C\c3ccncc3)/C(=O)N2C)cc1
Short answer wanted: higher absorption maximum, 1 or 2 ? Output the label that corresponds to your choice.
1
(1: 612 nm, 2: 425 nm)

I. O=C([O-])c1ccccc1-c1c2cc(Br)c(=O)c(Br)c-2oc2c(Br)c([O-])c(Br)cc12
II. I[I-]I
III. CC[N+]1=C(/C=C/C=C/C=C/C=C2/N(CCCCCC(=O)O)c3ccccc3C2(C)C)C(C)(C)c2cc(S(=O)(=O)[O-])ccc21
Reorder the items by absorption maximum, least to greatest. To answer, arrange all of the labels according to the requested order.
II, I, III

A. CCN(CC)c1ccc2c(c1)oc(=O)c1c(-c3ccccc3C(=O)O)c3ccc(=[N+](CC)CC)cc-3oc12
B. COCCOCCOCCOCCOc1ccc(OCCOCCOCCOCCOC)c(C=O)c1
Short answer wanted: higher absorption maximum, A or B ? Output the label that corresponds to your choice.
A

I. CC1(C)C(/C=C/c2cc3ccc(O)cc3oc2=O)=[N+](CCCS(=O)(=O)[O-])c2ccccc21
II. Oc1c(-c2cccs2)cccc1-c1nc2ccccc2s1
Short answer wanted: higher absorption maximum, I or II ? Output the label that corresponds to your choice.
I
(I: 555 nm, II: 346 nm)

a. CN(C)c1ccc2c(c1)[Si](C)(C)C1=CC(=[N+](C)C)C=CC1=C2C#Cc1ccccc1
b. O=C(O)C1=CC(=C/C=[N+]2/c3cc(O)c(C[C@@H]4O[C@H](CO)[C@@H](O)C(O)[C@H]4O)cc3C[C@H]2C(=O)O)C=C(C(=O)O)N1 (stereo not given in full)
Looking at a and b , which one comes out lower in absorption maximum terms? Output the label that corresponds to your choice.
b
(b: 468 nm, a: 712 nm)
